# reported EC50 (cAMP); entries follow
# target-under-test: T1, human GLP-2 receptor (human, UniProt O95838 1-553)
# T1 sequence (looked up): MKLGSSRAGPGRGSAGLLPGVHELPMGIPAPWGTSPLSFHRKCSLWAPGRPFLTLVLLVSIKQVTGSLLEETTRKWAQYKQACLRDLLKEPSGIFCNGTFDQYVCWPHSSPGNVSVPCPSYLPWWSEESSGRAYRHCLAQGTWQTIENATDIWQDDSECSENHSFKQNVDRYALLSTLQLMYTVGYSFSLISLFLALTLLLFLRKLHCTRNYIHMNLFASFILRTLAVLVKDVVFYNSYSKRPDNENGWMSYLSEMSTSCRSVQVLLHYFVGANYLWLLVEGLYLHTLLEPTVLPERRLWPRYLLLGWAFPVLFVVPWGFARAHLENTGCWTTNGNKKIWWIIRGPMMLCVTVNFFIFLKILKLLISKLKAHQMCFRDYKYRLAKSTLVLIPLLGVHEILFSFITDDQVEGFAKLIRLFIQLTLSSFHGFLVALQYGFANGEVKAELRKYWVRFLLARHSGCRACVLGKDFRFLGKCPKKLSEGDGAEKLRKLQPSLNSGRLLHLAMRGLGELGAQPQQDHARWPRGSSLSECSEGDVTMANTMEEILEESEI
# test-details: cell-based or functional assay
Report only the number, with the unit nM understood.

binder | readout-units | EC50 (cAMP)
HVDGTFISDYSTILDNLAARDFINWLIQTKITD [GIP-GLP-2 co-agonist 12] | nM | 25

Enquiry: Query (binder): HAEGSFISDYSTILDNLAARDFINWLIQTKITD [GIP-GLP-2 co-agonist 4] ; field requested: EC50 (cAMP)
Return: 25

Enquiry: Query (binder): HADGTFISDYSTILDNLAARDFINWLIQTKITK [GIP-GLP-2 co-agonist 18] ; field requested: EC50 (cAMP)
Return: 5.3
